Measured values drawn from PubChem BioAssay (Tox21) for this set.

Biological target: Progesterone receptor (Homo sapiens) (UniProt P06401)
Sequence (P06401 whole entry, looked up): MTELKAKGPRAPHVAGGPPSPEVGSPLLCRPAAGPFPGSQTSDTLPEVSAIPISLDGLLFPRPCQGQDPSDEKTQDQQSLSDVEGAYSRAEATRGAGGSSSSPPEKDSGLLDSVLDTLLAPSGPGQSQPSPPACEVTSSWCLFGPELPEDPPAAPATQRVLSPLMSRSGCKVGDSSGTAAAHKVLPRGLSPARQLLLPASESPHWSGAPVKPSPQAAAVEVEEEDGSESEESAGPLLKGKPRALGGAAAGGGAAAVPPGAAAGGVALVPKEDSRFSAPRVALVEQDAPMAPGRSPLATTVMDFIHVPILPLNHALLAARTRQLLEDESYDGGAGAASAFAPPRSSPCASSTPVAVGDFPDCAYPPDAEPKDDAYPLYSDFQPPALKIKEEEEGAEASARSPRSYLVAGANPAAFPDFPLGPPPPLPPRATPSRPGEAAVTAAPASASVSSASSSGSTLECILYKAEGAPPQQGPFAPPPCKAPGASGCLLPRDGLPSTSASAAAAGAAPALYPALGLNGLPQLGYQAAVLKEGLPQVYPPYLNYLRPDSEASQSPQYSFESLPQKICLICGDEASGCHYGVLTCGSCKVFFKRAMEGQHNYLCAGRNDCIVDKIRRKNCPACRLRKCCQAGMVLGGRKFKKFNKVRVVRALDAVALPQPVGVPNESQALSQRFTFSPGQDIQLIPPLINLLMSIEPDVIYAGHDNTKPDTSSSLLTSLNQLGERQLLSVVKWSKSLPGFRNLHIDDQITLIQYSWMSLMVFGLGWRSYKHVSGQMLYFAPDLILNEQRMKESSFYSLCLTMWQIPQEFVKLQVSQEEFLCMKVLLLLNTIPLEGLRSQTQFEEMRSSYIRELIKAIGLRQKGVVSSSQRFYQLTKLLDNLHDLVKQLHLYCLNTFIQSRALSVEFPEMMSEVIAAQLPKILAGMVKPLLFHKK
Test: qHTS assay to identify small molecule antagonists of the progesterone receptor (PR) signaling pathway (AID 1346795)
Settings: PR-UAS-bla HEK293T, beta-lactamase FRET ratio, 16 h; series mostly up to 92.4 µM
Records with an inconclusive call do not appear. Calls of active or inactive are those of the source. Calls follow the shape of the dose curve; as a rule, active = well fitted inhibition curve with a large enough effect in the signal ratio in the repeat runs (not every such curve was filed as active); inconclusive = weak or mixed curves; inactive = flat fitted curve, though single readings scatter; the % refers to the signal ratio.
Choose one outcome from this list and give only that: T for active, F for inactive

// below: answered compounds
• CC(C)(C)c1ccccc1 = F
• [Cl][In]([Cl])[Cl] = F
• CC[C@@H](N)CO = F

input: Recorded test outcome, item CCCC(=O)c1ccccc1
output: F

input: How about this compound: Oc1c(Cl)cc(Cl)c(Cl)c1Cc1c(O)c(Cl)cc(Cl)c1Cl
output: T

input: And then CC(C)(C)NCC(O)COc1ccccc1OCC1CCCO1 (configuration not stated) , what is it?
output: F

input: Next: Cc1cc(C2(c3cc(C)c(O)cc3C)OS(=O)(=O)c3ccccc32)c(C)cc1O
output: T

input: Now try CCn1cc(C(=O)O)c(=O)c2cc(F)c(N3CCNC(C)C3)c(F)c21 (configuration not stated) .
output: F

input: // next record Cc1cccc2n[nH]nc12
output: F

input: Another compound: c1cnc2cc3c(cc2n1)C1CNCC3C1
output: F

input: Request: O=C(O)Cn1cnnn1
output: F

input: Same question, CCN1CCCC1CNC(=O)c1cc(S(=O)(=O)CC)c(N)cc1OC (configuration not stated) this time
output: F

input: Continue with OCCN1CCNCC1
output: F
